# system_under_test: PPARγ (Homo sapiens)
# Construct: purchased Invitrogen Corporation, Carlsbad, Calif
# Sequence (P37231 238-503 limits assumed): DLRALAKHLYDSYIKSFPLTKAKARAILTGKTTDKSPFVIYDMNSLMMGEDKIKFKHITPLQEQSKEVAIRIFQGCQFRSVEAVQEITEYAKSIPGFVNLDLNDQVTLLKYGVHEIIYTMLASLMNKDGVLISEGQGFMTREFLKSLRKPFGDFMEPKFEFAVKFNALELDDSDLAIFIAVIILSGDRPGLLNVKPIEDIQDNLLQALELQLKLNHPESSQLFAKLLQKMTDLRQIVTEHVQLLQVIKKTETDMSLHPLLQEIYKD
# experimental_details: Commercial PPARγ binding assay (Invitrogen, PPAR-LBD/Fluormone PPAR Green complex)
# condition_label: 1 μM compound; mean of three experiments
assay_metric: PPARγ binding signal (fluorescence polarization, Fluormone PPAR Green displacement)

{"molecule": "CCc1ccc([C@H](O)COc2ccc(CC3SC(=O)NC3=O)cc2)nc1 (some centres unmarked)", "value_measured": 203}
{"molecule": "CCc1ccc(C(COc2ccc(CC3SC(=O)NC3=O)cc2)CC(=O)OC)nc1 (centres unmarked)", "value_measured": 198}
{"molecule": "CCc1ccc(C(=CC(=O)OC)COc2ccc(CC3SC(=O)NC3=O)cc2)nc1 (centres unmarked)", "value_measured": 232}
{"molecule": "CCc1ccc(C(=O)COc2ccc(CC3(C)SC(=O)NC3=O)cc2)nc1 (centres unmarked)", "value_measured": 240}
{"molecule": "CCc1ccc(C(=CCO)COc2ccc(CC3SC(=O)NC3=O)cc2)nc1 (centres unmarked)", "value_measured": 229}
